Origin of the recorded values: ChEMBL document CHEMBL3132858

Collected IC50 values appear next to each entry.
- EXPERIMENTAL_SYSTEM: Adenosine kinase (Homo sapiens, UniProt P55263)
- Sequence (P55263 whole entry): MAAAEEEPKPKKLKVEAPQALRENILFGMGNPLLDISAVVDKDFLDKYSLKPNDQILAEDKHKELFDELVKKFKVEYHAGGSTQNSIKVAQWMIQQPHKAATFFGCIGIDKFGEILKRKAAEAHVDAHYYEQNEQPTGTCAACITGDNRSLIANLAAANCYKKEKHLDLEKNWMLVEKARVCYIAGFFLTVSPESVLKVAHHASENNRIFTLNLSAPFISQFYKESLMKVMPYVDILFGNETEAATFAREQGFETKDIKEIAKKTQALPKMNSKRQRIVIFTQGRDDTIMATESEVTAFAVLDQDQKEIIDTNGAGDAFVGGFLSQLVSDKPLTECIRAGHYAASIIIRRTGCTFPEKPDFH
- ASSAY_INFO: Inhibition of human ADK using [3H]-adenosine by scintillation counting method

Reference set (3 entries):
>>> data_value("OC[C@H]1O[C@@H](n2ccc3c(-c4ccccc4)ncnc32)[C@H](O)[C@@H]1O")
"> 10 µM"
>>> data_value("OC[C@H]1O[C@@H](n2cc(Cl)c3c(-c4ccc(F)cc4)ncnc32)[C@H](O)[C@@H]1O")
"> 20 µM"
>>> data_value("OC[C@H]1O[C@@H](n2ccc3c(-c4ccco4)ncnc32)[C@H](O)[C@@H]1O")
"1.3 µM"

Input: Reported IC50, molecule CCCCCCCCCCCCCCCCCCOP(=O)(O)OC[C@H]1O[C@@H](n2ccc3c(-c4cc5ccccc5o4)ncnc32)[C@H](O)[C@@H]1O : ____
Output: 2.9 µM

Input: And OC[C@H]1O[C@@H](n2ccc3c(-c4nccs4)ncnc32)[C@H](O)[C@@H]1O ?
Output: > 20 µM

Input: And OCc1ncnc2c1ccn2[C@@H]1O[C@H](CO)[C@@H](O)[C@H]1O ?
Output: > 10 µM

Input: And OC[C@H]1O[C@@H](n2ccc3c(-c4c[nH]cn4)ncnc32)[C@H](O)[C@@H]1O ?
Output: > 10 µM

Input: And CCCCCCCCCCCCCCCCCCOP(=O)(O)OC[C@H]1O[C@@H](n2ccc3c(-c4cccs4)ncnc32)[C@H](O)[C@@H]1O ?
Output: 1.97 µM

Input: And OC[C@H]1O[C@@H](n2ccc3c(-c4ccccn4)ncnc32)[C@H](O)[C@@H]1O ?
Output: > 10 µM

Input: And OC[C@H]1O[C@@H](n2ccc3c(-c4ccc[nH]4)ncnc32)[C@H](O)[C@@H]1O ?
Output: > 10 µM

Input: And CCc1ncnc2c1ccn2[C@@H]1O[C@H](CO)[C@@H](O)[C@H]1O ?
Output: > 20 µM

Input: And COc1ccc(-c2ncnc3c2ccn3[C@@H]2O[C@H](CO)[C@@H](O)[C@H]2O)cc1 ?
Output: > 10 µM

Input: And OC[C@H]1O[C@@H](n2ccc3c(-c4cccc5c4sc4ccccc45)ncnc32)[C@H](O)[C@@H]1O ?
Output: 15.4 µM

Input: And OC[C@H]1O[C@@H](n2ccc3c(-c4cc5ccccc5[nH]4)ncnc32)[C@H](O)[C@@H]1O ?
Output: 8.35 µM

Input: And OC[C@H]1O[C@@H](n2ccc3c(-c4ccc(F)cc4)ncnc32)[C@H](O)[C@@H]1O ?
Output: > 10 µM

Input: And OC[C@H]1O[C@@H](n2cc(F)c3c(-c4ccc[nH]4)ncnc32)[C@H](O)[C@@H]1O ?
Output: > 10 µM

Input: And OC[C@H]1O[C@@H](n2cc(Cl)c3c(-c4cccs4)ncnc32)[C@H](O)[C@@H]1O ?
Output: 1.2 µM

Input: And OC[C@H]1O[C@@H](n2cc(F)c3c(-c4c[nH]cn4)ncnc32)[C@H](O)[C@@H]1O ?
Output: > 20 µM

Input: And CCCCCCCCCCCCCCCCCCOP(=O)(O)OC[C@H]1O[C@@H](n2ccc3c(-c4ccccc4)ncnc32)[C@H](O)[C@@H]1O ?
Output: 4.4 µM

Input: And OC[C@H]1O[C@@H](n2ccc3c(-c4cc5ccccc5s4)ncnc32)[C@H](O)[C@@H]1O ?
Output: 0.3 µM

Input: And Cc1ncnc2c1ccn2[C@@H]1O[C@H](CO)[C@@H](O)[C@H]1O ?
Output: > 10 µM
